- subject_of_test: AtPPO1 S305L Y426M (SEQ ID NO.124) (Arabidopsis thaliana, UniProt P55826, S305L/Y426M)
- Construct: made in house; host or cells: E. coli BL21 (DE3) hemG, crude extract
- assay_remarks: fluorescent Protoporphyrinogen Oxidase assay, crude extract
- Format: biochemical
- conditions: read-out: percentage inhibition
Measured inhibition at 100 ppm values are reported for all entries that follow.
Report the figure in % without appending any unit label.

Examples with their reported inhibition at 100 ppm follow.
[[record]]
molecule = "CCOC(=O)COc1ncccc1Oc1cc(-n2c(=O)cc(C(F)(F)F)n(C)c2=O)c(F)cc1Cl [Herbicide A, epyrifenacil]"
subject_of_test = "AtPPO1 S305L Y426M (SEQ ID NO.124) (Arabidopsis thaliana, UniProt P55826, S305L/Y426M)"
assay_result = 100

[[record]]
molecule = "C#CCN1C(=O)C(F)(F)Oc2cc(F)c(-n3c(=O)n(C)c(=S)n(C)c3=O)cc21 [Herbicide B, trifludimoxazin]"
subject_of_test = "AtPPO1 S305L Y426M (SEQ ID NO.124) (Arabidopsis thaliana, UniProt P55826, S305L/Y426M)"
assay_result = 100

[[record]]
molecule = "CCOC(=O)[C@]1(C)CC(c2cc(-n3c(=O)n(C)c(=S)n(C)c3=O)c(F)cc2Cl)=NO1 [Herbicide D]"
subject_of_test = "AtPPO1 S305L Y426M (SEQ ID NO.124) (Arabidopsis thaliana, UniProt P55826, S305L/Y426M)"
assay_result = 100

[[record]]
molecule = "CC(C)N(C)S(=O)(=O)NC(=O)c1cc(-n2c(=O)cc(C(F)(F)F)n(C)c2=O)c(F)cc1Cl [Herbicide E, saflufenacil]"
subject_of_test = "AtPPO1 S305L Y426M (SEQ ID NO.124) (Arabidopsis thaliana, UniProt P55826, S305L/Y426M)"
assay_result = 96


Lab note: next molecule to report on.
Quick check: inhibition at 100 ppm of CCOC(=O)C1(C)CC(c2cc(-n3c(=O)cc(C(F)(F)F)n(C)c3=O)c(F)cc2Cl)=NO1 (centres unmarked) [Herbicide C] ?
100

---

- subject_of_test: His-TEV-AtPPO1 ΔcTP V002 (SEQ ID NO: 373) (Arabidopsis thaliana, UniProt P55826, L479M/S305L/Y426V)
- Construct: with cTPs removed; made in house; host or cells: E. coli BL21 (DE3), His GraviTrap, partially purified
- assay_remarks: PPO fluorescence IC50 assay, partially purified enzyme
- Assay type: biochemical
- conditions: role: inhibitor; 1 uM protoporphyrinogen IX; <1.0 is below detection limit of assay
endpoint: IC50 (nM)
Report the figure in nM without appending any unit label.

Quick check: IC50 of COC(=O)C(C)ON=Cc1cc(-n2c(=O)cc(C(F)(F)F)n(C)c2=O)c(F)cc1Cl (stereo not shown) [Flufenoximacil, flufenoximacil] ?
863

---

- subject_of_test: His-TEV-AtPP01 ΔcTP (SEQ ID NO: 370) (Arabidopsis thaliana)
- Construct: with cTPs removed; made in house; host or cells: E. coli BL21 (DE3), His GraviTrap, partially purified
- assay_remarks: PPO fluorescence IC50 assay, partially purified enzyme
- Type: biochemical
- conditions: role: inhibitor; 1 uM protoporphyrinogen IX; <1.0 is below detection limit of assay
- Experimental: A pET24 plasmid containing a DNA sequence encoding variants of AtPPO1 derived from Arabidopsis thaliana with cTPs removed and both a 6×His tag and TEV protease cleavage tag added at the N-terminus, codon-optimised for expression in E. coli, and under control of a T7 promoter, was synthesised by Twist Bioscience. […] Protein concentration was measured and calculated using the absorbance at 280 nm. Extracts were diluted 1 in 4 and 10 uL was analysed by SDS PAGE. […]
endpoint: pIC50
# pIC50: negative log10 of molar concentration; output just the value

# get_value(readout= pIC50, system= His-TEV-AtPP01 ΔcTP (SEQ ID NO: 370) (Arabidopsis thaliana)) for COC(=O)C(C)ON=Cc1cc(-n2c(=O)cc(C(F)(F)F)n(C)c2=O)c(F)cc1Cl (stereo not shown) [Flufenoximacil, flufenoximacil]
9.22

---

Measured inhibition at 10 ppm values are reported for all entries that follow.
- subject_of_test: AtPPO1 S305L Y426V L479M (SEQ ID NO.131) (Arabidopsis thaliana, UniProt P55826, L479M/S305L/Y426V)
- Construct: made in house; host or cells: E. coli BL21 (DE3) hemG, crude extract
- assay_remarks: fluorescent Protoporphyrinogen Oxidase assay, crude extract
- Assay type: biochemical
- conditions: read-out: percentage inhibition
Report the figure in % without appending any unit label.

[[record]]
compound = "CC(C)N(C)S(=O)(=O)NC(=O)c1cc(-n2c(=O)cc(C(F)(F)F)n(C)c2=O)c(F)cc1Cl [Herbicide E, saflufenacil]"
endpoint = "inhibition at 10 ppm"
endpoint_unit = "%"
assay_result = 70


Quick check: inhibition at 10 ppm of CCOC(=O)COc1ncccc1Oc1cc(-n2c(=O)cc(C(F)(F)F)n(C)c2=O)c(F)cc1Cl [Herbicide A, epyrifenacil] ?
87

Quick check: inhibition at 10 ppm of CCOC(=O)[C@]1(C)CC(c2cc(-n3c(=O)n(C)c(=S)n(C)c3=O)c(F)cc2Cl)=NO1 [Herbicide D] ?
76

Quick check: inhibition at 10 ppm of C#CCN1C(=O)C(F)(F)Oc2cc(F)c(-n3c(=O)n(C)c(=S)n(C)c3=O)cc21 [Herbicide B, trifludimoxazin] ?
100

Quick check: inhibition at 10 ppm of CCOC(=O)C1(C)CC(c2cc(-n3c(=O)cc(C(F)(F)F)n(C)c3=O)c(F)cc2Cl)=NO1 (centres unmarked) [Herbicide C] ?
90

---

- subject_of_test: AtPPO1 Y361D V365L (SEQ ID NO.135) (Arabidopsis thaliana, UniProt P55826, V365L/Y361D)
- Construct: made in house; host or cells: E. coli BL21 (DE3) hemG, crude extract
- assay_remarks: fluorescent Protoporphyrinogen Oxidase assay, crude extract
- Assay type: biochemical
- conditions: read-out: percentage inhibition
We use 30% as the dividing line for inhibition at 0.1 ppm: on or above the line is 1, below is -1.

Reference set (3 entries):
[[record]]
molecule = "CCOC(=O)[C@]1(C)CC(c2cc(-n3c(=O)n(C)c(=S)n(C)c3=O)c(F)cc2Cl)=NO1 [Herbicide D]"
assigned_class = -1

[[record]]
molecule = "CCOC(=O)COc1ncccc1Oc1cc(-n2c(=O)cc(C(F)(F)F)n(C)c2=O)c(F)cc1Cl [Herbicide A, epyrifenacil]"
assigned_class = 1

[[record]]
molecule = "CC(C)N(C)S(=O)(=O)NC(=O)c1cc(-n2c(=O)cc(C(F)(F)F)n(C)c2=O)c(F)cc1Cl [Herbicide E, saflufenacil]"
assigned_class = -1


Let's switch to this molecule now.
# check: inhibition at 0.1 ppm of C#CCN1C(=O)C(F)(F)Oc2cc(F)c(-n3c(=O)n(C)c(=S)n(C)c3=O)cc21 [Herbicide B, trifludimoxazin] is greater than or equal to 30%
1

---

- subject_of_test: AtPPO1 S305L G404A Y426V T431R L479N (SEQ ID NO.127) (Arabidopsis thaliana, UniProt P55826, G404A/L479N/S305L/T431R/Y426V)
- Construct: made in house; host or cells: E. coli BL21 (DE3) hemG, crude extract
- Sequence (P55826 35-537 S305L/G404A/Y426V/T431R/L479N): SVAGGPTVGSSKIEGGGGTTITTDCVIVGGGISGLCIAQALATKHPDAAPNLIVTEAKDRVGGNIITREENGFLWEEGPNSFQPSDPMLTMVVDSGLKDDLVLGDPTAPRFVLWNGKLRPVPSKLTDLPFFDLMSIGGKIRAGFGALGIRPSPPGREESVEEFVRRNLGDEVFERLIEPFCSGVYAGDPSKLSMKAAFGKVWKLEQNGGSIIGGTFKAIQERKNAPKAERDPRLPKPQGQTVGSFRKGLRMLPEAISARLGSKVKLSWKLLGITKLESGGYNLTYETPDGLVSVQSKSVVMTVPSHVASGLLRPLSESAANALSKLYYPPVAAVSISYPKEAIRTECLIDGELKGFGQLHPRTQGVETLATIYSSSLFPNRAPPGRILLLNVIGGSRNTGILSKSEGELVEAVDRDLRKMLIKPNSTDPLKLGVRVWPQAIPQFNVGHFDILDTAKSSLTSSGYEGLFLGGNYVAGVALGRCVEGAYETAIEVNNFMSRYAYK
- assay_remarks: fluorescent Protoporphyrinogen Oxidase assay, crude extract
- Format: biochemical
- conditions: read-out: percentage inhibition
endpoint: inhibition at 0.1 ppm (%)
Report the figure in % without appending any unit label.

[[record]]
compound = "CCOC(=O)[C@]1(C)CC(c2cc(-n3c(=O)n(C)c(=S)n(C)c3=O)c(F)cc2Cl)=NO1 [Herbicide D]"
assay_result = 13

[[record]]
compound = "CC(C)N(C)S(=O)(=O)NC(=O)c1cc(-n2c(=O)cc(C(F)(F)F)n(C)c2=O)c(F)cc1Cl [Herbicide E, saflufenacil]"
assay_result = 11

[[record]]
compound = "CCOC(=O)COc1ncccc1Oc1cc(-n2c(=O)cc(C(F)(F)F)n(C)c2=O)c(F)cc1Cl [Herbicide A, epyrifenacil]"
assay_result = 9

[[record]]
compound = "C#CCN1C(=O)C(F)(F)Oc2cc(F)c(-n3c(=O)n(C)c(=S)n(C)c3=O)cc21 [Herbicide B, trifludimoxazin]"
assay_result = 91


Lab note: next compound to report on.
Quick check: inhibition at 0.1 ppm of CCOC(=O)C1(C)CC(c2cc(-n3c(=O)cc(C(F)(F)F)n(C)c3=O)c(F)cc2Cl)=NO1 (centres unmarked) [Herbicide C] ?
47
